System: Trypanosoma cruzi
Test: Trypanosoma cruzi phosphomannomutase and mannose-1-phosphate guanylyltransferase assay
Type: functional
Design: scale not given: direction of the effect not stated beside the values
Conditions: 10 µM
Listed here are compounds together with their documented Percent Effect.
Kindly answer with a numeric value in %, unit omitted.

The following compounds have reported results that may help.
compound	Percent Effect / %
CCN1CCC(CNC(=O)NCc2cc(-c3ccc(C)cc3)no2)C1 (centres undefined)	3.44
Cc1nc(C)c(C(=O)NCCNC(=O)Cc2ccccc2)s1	-4.36
CCN(Cc1ccco1)C(=O)NCc1nnc2n1CCC2	-1.35

Looking for the measured Percent Effect of CC(=O)c1ccc(OCC(=O)NC(C)CCc2ccco2)cc1 (centres undefined) , can you help?
-7.34

Looking for the measured Percent Effect of O=S(=O)(c1cccnc1)N1CCN(CCn2ccnc2)CC1 , can you help?
-8.81

Looking for the measured Percent Effect of COc1cccc2c1OCC(NC(=O)NCc1cccs1)C2 (centres undefined) , can you help?
0.876

* * *

Target: Tyrosyl-tRNA synthetase, putative (Trypanosoma cruzi (strain CL Brener)) (UniProt Q4DSP6)
Sequence (whole entry): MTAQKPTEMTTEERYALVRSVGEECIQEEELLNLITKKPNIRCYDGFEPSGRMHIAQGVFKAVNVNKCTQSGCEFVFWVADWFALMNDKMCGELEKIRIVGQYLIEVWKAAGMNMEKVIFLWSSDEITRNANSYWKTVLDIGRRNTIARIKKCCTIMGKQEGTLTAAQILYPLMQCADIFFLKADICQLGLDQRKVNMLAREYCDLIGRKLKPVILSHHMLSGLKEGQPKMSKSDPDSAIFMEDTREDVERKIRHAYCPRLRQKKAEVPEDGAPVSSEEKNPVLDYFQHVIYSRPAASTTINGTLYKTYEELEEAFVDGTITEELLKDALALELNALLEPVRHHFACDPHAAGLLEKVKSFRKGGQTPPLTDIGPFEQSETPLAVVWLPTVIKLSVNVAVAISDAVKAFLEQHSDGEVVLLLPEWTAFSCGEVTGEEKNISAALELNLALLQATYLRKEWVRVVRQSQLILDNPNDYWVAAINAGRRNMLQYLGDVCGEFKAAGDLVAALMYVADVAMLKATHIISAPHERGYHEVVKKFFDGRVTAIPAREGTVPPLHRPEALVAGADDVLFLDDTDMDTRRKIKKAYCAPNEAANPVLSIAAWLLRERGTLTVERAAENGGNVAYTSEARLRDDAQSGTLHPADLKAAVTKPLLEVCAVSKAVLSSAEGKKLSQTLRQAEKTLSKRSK
Assay: Trypanosoma cruzi tyrosyl tRNA synthetase (TcYRS) _High Tyrosine SOP; further: in the data most compounds retested in dose-response had high values
Assay type: functional
Design: scale not given: direction of the effect not stated beside the values
Conditions: 30 µM
attribute-measured: Percent Effect (%)
Kindly answer with a numeric value in %, unit omitted.

The following compounds have reported results that may help.
compound	attribute-measured	value-measured
CC(C)c1ncc2c(n1)CN(Cc1nc(-c3cccs3)no1)CC2	Percent Effect	13.9
O=C(CC1CC1)NCc1cn2c(n1)CN(CC1CC1)CC2	Percent Effect	-3.19

Lab note: need Percent Effect for COCC(=O)NCCn1ccc2c(OC)cccc21 on Tyrosyl-tRNA synthetase, putative (Trypanosoma cruzi (strain CL Brener)) (UniProt Q4DSP6), anyone have it?
6.35

Lab note: need Percent Effect for CC(C)Cc1noc(CN2CCN(c3nccs3)CC2)n1 on Tyrosyl-tRNA synthetase, putative (Trypanosoma cruzi (strain CL Brener)) (UniProt Q4DSP6), anyone have it?
0.971

Lab note: need Percent Effect for O=C(COc1coc(CN2CCOCC2)cc1=O)c1ccc(Cl)cc1 on Tyrosyl-tRNA synthetase, putative (Trypanosoma cruzi (strain CL Brener)) (UniProt Q4DSP6), anyone have it?
-1.06

Lab note: need Percent Effect for O=C(CCc1cscn1)NS(=O)(=O)c1ccc2c(c1)CCC2 on Tyrosyl-tRNA synthetase, putative (Trypanosoma cruzi (strain CL Brener)) (UniProt Q4DSP6), anyone have it?
3.16

Lab note: need Percent Effect for CN(C)C(=O)CN1CCCC2(CCN(c3ccsc3)C2=O)C1 (centres undefined) on Tyrosyl-tRNA synthetase, putative (Trypanosoma cruzi (strain CL Brener)) (UniProt Q4DSP6), anyone have it?
-1.06

Lab note: need Percent Effect for COC(=O)c1cc(OCC2CCC2)cc(C(=O)N[C@@H]2CNCC[C@H]2O)c1 on Tyrosyl-tRNA synthetase, putative (Trypanosoma cruzi (strain CL Brener)) (UniProt Q4DSP6), anyone have it?
0

* * *

Listed here are molecules together with their documented Percent Effect.
Target: AMP-activated protein kinase, AMPK (Homo sapiens) (UniProt P54646+O43741+P54619+Q9UGJ0+Q9Y478+Q13131+Q9UGI9)
Experiment: AMP-dependent Kinase enzyme assay. An in vitro enzyme assay that detects ADP turnover that is directly proportional to AMPK activity. This uses naive AMPK that is activated during the assay with MK-8722
Type: functional
Set-up: scale not given: direction of the effect not stated beside the values
Details: 30 µM
Kindly answer with a numeric value in %, unit omitted.

molecule	Percent Effect, %
COc1ccc(S(=O)(=O)N2CCCC3(CCCN3S(C)(=O)=O)C2)cc1 (stereo not drawn)	-2.61
Cc1nnc2n1CCN(C(=O)c1cc(C)n(-c3ccccn3)c1C)C2	-9.47
CCN(c1ccc(C(=O)NCCCN2CCCC2)cc1)S(=O)(=O)CC	-1.17
Cn1ccnc1SCc1nc(C(C)(C)NC(=O)OC(C)(C)C)no1	-1.15
O=c1c2sccc2nc2n1CCN(Cc1cccs1)CC2	10.7
OC[C@H]1CC[C@]2(CC1)CN(Cc1ccccn1)Cc1ccccc1O2	15.4
O=C(c1ccc(F)c(Cl)c1)N1C[C@@H]2CC[C@H](C1)N(Cc1ccccc1)C2	5.89
Cc1ccccc1Cc1cnc(NC(=O)C2CNC(=O)N2)s1 (stereo not drawn)	-1.9

Attention now turns to another entry.
Looking for the measured Percent Effect of O=C(CCc1cc2n(n1)CCCN(Cc1ccccc1F)C2)NC1CC1 , can you help?
1.32

* * *

Listed here are compounds together with their documented Percent Effect.
Molecular target: Tyrosyl-tRNA synthetase, putative (Trypanosoma cruzi (strain CL Brener))
Test: Trypanosoma cruzi tyrosyl tRNA synthetase (TcYRS) _High Tyrosine SOP; further: in the data most compounds retested in dose-response had high values
Type: functional
Parameters: scale not given: direction of the effect not stated beside the values
Conditions: 30 µM
Kindly answer with a numeric value in %, unit omitted.

compound	attribute-measured	readout-unit	value-measured
CC(NC(=O)NCCCn1cncn1)c1ccc2c(c1)OCCO2 (stereo unspecified)	Percent Effect	%	2.97
Cn1ccnc1CNC1CCCN(Cc2noc(C3CC3)n2)C1 (stereo unspecified)	Percent Effect	%	10.1
COCC(=O)NC1CC2(CCN(Cc3ccco3)CC2)c2ccccc21 (stereo unspecified)	Percent Effect	%	2.16
COCC1CCCN(C(=O)c2cc(Cn3ccc4ccccc43)[nH]n2)C1 (stereo unspecified)	Percent Effect	%	14

Looking for the measured Percent Effect of Cc1noc2nc(C3CCN(CC4=CCCOC4)CC3)cc(C(F)F)c12 , can you help?
7.53

Looking for the measured Percent Effect of CN(Cc1ccco1)Cc1ccccc1CNC(=O)c1ccc[nH]1 , can you help?
3.7

* * *

Target: Tyrosyl-tRNA synthetase, putative (Trypanosoma cruzi (strain CL Brener)) (UniProt Q4DSP6)
Experiment: Trypanosoma cruzi tyrosyl tRNA synthetase (TcYRS) _High Tyrosine SOP; further: in the data most compounds retested in dose-response had high values
Format: functional
Parameters: scale not given: direction of the effect not stated beside the values
Conditions: 30 µM
attribute-measured: Percent Effect (%)
Kindly answer with a numeric value in %, unit omitted.

compound	value-measured
CCC1c2cccn2CCN1C(=O)c1ccc2nonc2c1 (configuration not stated)	3.16
Cc1ccc(CNCc2nnc3n2CC(C(F)(F)F)CC3)cc1 (configuration not stated)	5.38
CCCc1nc(CN2CCOC(CNc3cccnn3)C2)cs1 (configuration not stated)	14.3
O=C(NCc1ccccn1)N(Cc1ccc(F)cc1F)C1CC1	5.42
O=C(Nc1ccccn1)C1CC(=O)N(Cc2ccccn2)C1 (configuration not stated)	3.19

Looking for the measured Percent Effect of Cc1ncc2c(n1)CCN(C(=O)Cc1c(C)noc1C)C2 , can you help?
9.36

Looking for the measured Percent Effect of Cc1cc(C)n(C2CN(CC(=O)NC3CCOCC3)C2)n1 , can you help?
8.33

Looking for the measured Percent Effect of CCn1cc(CN2CC3CCCN3C[C@H]2C)c(C)n1 (some centres not stated) , can you help?
4.3

Looking for the measured Percent Effect of c1cnc(-c2cnc(N3CCSCC3)nc2C2CCCO2)cn1 (configuration not stated) , can you help?
1.07

Looking for the measured Percent Effect of CNc1nc(CNC(=O)Nc2cccc(-c3nnco3)c2)cs1 , can you help?
2.97

Looking for the measured Percent Effect of CCN(C(=O)CCCOc1ccccc1F)c1ccncc1 , can you help?
5.32

Looking for the measured Percent Effect of CC(=O)N1CC[C@H]2OCC[C@@]2(C(=O)NCc2ccco2)C1 , can you help?
4.17

* * *

Listed here are compounds together with their documented Percent Effect.
Biological target: Protein translocase subunit SecA (Escherichia coli (strain K12)) (UniProt P10408)
Sequence (P10408 whole entry): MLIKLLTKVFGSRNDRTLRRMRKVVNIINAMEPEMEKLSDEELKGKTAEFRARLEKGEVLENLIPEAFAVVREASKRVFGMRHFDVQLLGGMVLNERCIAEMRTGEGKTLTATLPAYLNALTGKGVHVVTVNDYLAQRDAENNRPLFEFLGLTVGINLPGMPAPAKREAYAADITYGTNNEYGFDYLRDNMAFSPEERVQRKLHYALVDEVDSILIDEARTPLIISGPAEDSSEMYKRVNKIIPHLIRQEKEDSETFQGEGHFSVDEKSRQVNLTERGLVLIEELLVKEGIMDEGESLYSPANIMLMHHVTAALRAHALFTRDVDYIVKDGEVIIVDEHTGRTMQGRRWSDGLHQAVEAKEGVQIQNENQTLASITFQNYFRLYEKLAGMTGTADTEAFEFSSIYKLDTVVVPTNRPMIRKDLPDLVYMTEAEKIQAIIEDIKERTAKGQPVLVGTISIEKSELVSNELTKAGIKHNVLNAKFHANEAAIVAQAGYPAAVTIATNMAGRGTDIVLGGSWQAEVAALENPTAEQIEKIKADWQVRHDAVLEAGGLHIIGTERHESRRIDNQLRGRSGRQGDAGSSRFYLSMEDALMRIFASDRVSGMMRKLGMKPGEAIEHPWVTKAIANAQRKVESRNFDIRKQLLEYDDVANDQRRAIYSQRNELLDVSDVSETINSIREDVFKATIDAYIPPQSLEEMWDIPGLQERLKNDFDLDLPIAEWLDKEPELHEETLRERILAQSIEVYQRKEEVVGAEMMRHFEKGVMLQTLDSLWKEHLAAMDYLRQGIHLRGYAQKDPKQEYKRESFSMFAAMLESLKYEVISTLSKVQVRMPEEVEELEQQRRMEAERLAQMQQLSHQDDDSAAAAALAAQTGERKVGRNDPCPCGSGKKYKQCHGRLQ
Assay: Assay to Identify E. coli SecA ATPase Inhibitors
Assay type: functional
Parameters: scale not given: direction of the effect not stated beside the values
Details: 30 µM
Entries with a potency or affinity are not part of this list.

The following compounds have reported results that may help.
compound	Percent Effect
CN(CCc1ccccc1)Cc1cc(C(=O)N2CCCC2(C)C)no1	8.96%
Cc1cnc(N)c(C(=O)C2CCN(C(=O)c3ccccc3F)CC2)c1	-7.77%

Lab note: need Percent Effect for CC(NC(=O)NCc1cccnc1N1CCCCC1)c1nccs1 (centres undefined) on Protein translocase subunit SecA (Escherichia coli (strain K12)) (UniProt P10408), anyone have it?
-4.11%

Lab note: need Percent Effect for Cn1c(CC2CCS(=O)(=O)C2)nnc1SCCOc1cccc(Cl)c1 (centres undefined) on Protein translocase subunit SecA (Escherichia coli (strain K12)) (UniProt P10408), anyone have it?
-2.94%

Lab note: need Percent Effect for O=C(NCc1ccccc1CN1CCC(O)CC1)Nc1cccnc1 on Protein translocase subunit SecA (Escherichia coli (strain K12)) (UniProt P10408), anyone have it?
-1.42%

Lab note: need Percent Effect for CSCC(=O)N1CCCC1c1noc(C2CC2)n1 (centres undefined) on Protein translocase subunit SecA (Escherichia coli (strain K12)) (UniProt P10408), anyone have it?
-5.16%

Lab note: need Percent Effect for CSc1nccn1-c1cccc(C(=O)NCCCN2CCOCC2)c1 on Protein translocase subunit SecA (Escherichia coli (strain K12)) (UniProt P10408), anyone have it?
-3.34%

Lab note: need Percent Effect for CCc1nccn1C1CCCN(C(=O)c2cnc3ccccc3n2)C1 (centres undefined) on Protein translocase subunit SecA (Escherichia coli (strain K12)) (UniProt P10408), anyone have it?
-5.47%

Lab note: need Percent Effect for COc1cccc(C2CCCN2Cc2nc3c(cnn3C)c(=O)[nH]2)c1 (centres undefined) on Protein translocase subunit SecA (Escherichia coli (strain K12)) (UniProt P10408), anyone have it?
-0.893%

Lab note: need Percent Effect for CCn1c(C(=O)N2CCN(CC(C)O)CC2)cc2ccccc21 (centres undefined) on Protein translocase subunit SecA (Escherichia coli (strain K12)) (UniProt P10408), anyone have it?
-8.12%

Lab note: need Percent Effect for CCCS(=O)(=O)Nc1ccc2c(c1)OCC(C)(C)C(=O)N2C on Protein translocase subunit SecA (Escherichia coli (strain K12)) (UniProt P10408), anyone have it?
-0.588%

Lab note: need Percent Effect for COc1cc(CN(C)C(=O)NCCC2CCCO2)ccc1SC (centres undefined) on Protein translocase subunit SecA (Escherichia coli (strain K12)) (UniProt P10408), anyone have it?
-3%

Lab note: need Percent Effect for COCc1cccc(NC(C)C(=O)N(C)Cc2ccccc2)c1 (centres undefined) on Protein translocase subunit SecA (Escherichia coli (strain K12)) (UniProt P10408), anyone have it?
-8.46%

Lab note: need Percent Effect for COc1ccccc1C(=O)NC(CC(=O)O)c1cccs1 (centres undefined) on Protein translocase subunit SecA (Escherichia coli (strain K12)) (UniProt P10408), anyone have it?
-3.27%
